# Run Conditions: human gut metagenome, 24 h, 2 µM; also: call rule not given here
Quantity Kind: Bacterial Biotransformation

Answered examples (10):
Compound	Bacterial Biotransformation
CC[C@@H](CO)NC(=O)[C@@H]1C=C2c3cccc4c3c(cn4C)C[C@H]2N(C)C1.O=C(O)/C=C\C(=O)O [METHYSERGIDE MALEATE]	Compound NOT metabolized
CC(Oc1c(Cl)cccc1Cl)C1=NCCN1 (stereo not drawn)	Compound metabolized
COC(=O)Nc1nc2ccc(C(=O)c3ccccc3)cc2[nH]1	Compound metabolized
CCN(CC)C(C)CN1c2ccccc2Sc2ccccc21 (stereo not drawn)	Compound metabolized
O=c1[nH]c2ccccc2n1CCCN1CCC(n2c(=O)[nH]c3cc(Cl)ccc32)CC1	Compound NOT metabolized
CC(C)(Oc1ccc(CCNC(=O)c2ccc(Cl)cc2)cc1)C(=O)O [BEZAFIBRATE]	Compound metabolized
Cc1ccc(-c2nc3ccc(C)cn3c2CC(=O)N(C)C)cc1	Compound metabolized
CN1CCN(C2=Nc3cc(Cl)ccc3Nc3ccccc32)CC1	Compound metabolized
Br.CN(C)CCCC1(c2ccc(F)cc2)OCc2cc(C#N)ccc21 (stereo not drawn) [CITALOPRAM HYDROBROMIDE]	Compound metabolized
CCCC1O[C@@H]2C[C@H]3[C@@H]4CCC5=CC(=O)C=C[C@]5(C)[C@H]4[C@@H](O)C[C@]3(C)[C@]2(C(=O)CO)O1 (stereo partly drawn) [BUDESONIDE]	Compound metabolized

For record CCOC(=O)[C@H](CCc1ccccc1)N[C@H]1CCc2ccccc2N(CC(=O)O)C1=O the listed Bacterial Biotransformation is Compound metabolized

For record CC(C)(C(=O)O)c1ccc(C(O)CCCN2CCC(C(O)(c3ccccc3)c3ccccc3)CC2)cc1 (stereo not drawn) [FEXOFENADINE] the listed Bacterial Biotransformation is Compound NOT metabolized
